Values from paper PMC10584170

Below: a set of entries, each annotated with reported % inhibition male (individual replicates) R3.
- System: P. falciparum male gametocytes
- MEASUREMENT_DESCRIPTION: P. falciparum Dual Gamete Formation Assay (PfDGFA), male readout (exflagellation)
- Type: cell-based, Plasmodium falciparum NF54
- RUN_CONDITIONS: 2µM, 24h preincubation with gametocytes prior to induction of gametogenesis; replicate R3
ASSAY_READOUT: % inhibition male (individual replicates) R3 (%)

Cc1cccc(-c2cccc(CNc3nc(NCCc4ccc(O)cc4)nc(N4CCNCC4)n3)c2)c1.O=C(O)C(F)(F)F    -16.3
O=C(Nc1nc(-c2ccccn2)cs1)c1ccc(S(=O)(=O)N2CCc3ccccc32)cc1    -49.6
CC(=O)c1cccc(S(=O)(=O)NCCCNc2nc3cc(C)cc(C)c3cc2C#N)c1    -3.8
Br.CC(C)(Cc1ccc(Cl)cc1)NCCCCCCNCCc1ccc(O)c(O)c1    18.9
CCCc1cc(Cc2cnc(N)nc2N)cc(CCC)c1OCCCCC(=O)O    1.6
Cc1ccc(-c2nc3cc(NC(=O)c4ccc([N+](=O)[O-])o4)ccc3o2)cc1Cl    -3.8
COc1cc(CNCCCCCCNCc2cc(OC)cc3ccccc23)c2ccccc2c1.CS(=O)(=O)O    12.3
CN(CCc1ccccc1)c1ncc(-c2cccc(CNCCC3CCCN3C)c2)cn1 (centres unmarked)    31.4
